Reported Activity values follow for various compounds
# Test system: HT-29
# test details: Induction of apoptosis in human HT-29 cells assessed as dead cells at 1.25 uM after 24 hrs by PE annexin V and 7-Aminoactinomycin D staining-based flow cytometry (reference value: 1.33%)
# Assay type: functional
Provide only the numeric value, understood in %.

O=C1C(=O)N(CCCN=C=S)c2c(Br)cc(Br)cc21	1.92
N#CSCc1ccc(CN2C(=O)C(=O)c3cc(Br)cc(Br)c32)cc1	2.59
O=C1C(=O)N(Cc2ccc(CN=C=S)cc2)c2c(Br)cc(Br)cc21	4.29

Next up:
Req: Please report Activity for the following compound: "N#C[Se]CCCN1C(=O)C(=O)c2cc(Br)cc(Br)c21"
Resp: 1.53

Cited source: ChEMBL document CHEMBL1833841
